Experiment: Rodent pharmacokinetic study
Format: in vivo, Male Wistar rats
Settings: rat, plasma; oral (gavage) 3 mg/kg; fasted male Wistar rats; mean ± S.D, n = 3
Structures can show the parent of a compound that is named as a salt.
Would you mind telling me the reported AUC(0-t) of each entry?
// units = ng·h/mL; emit number, no label

Could you tell me which AUC(0-t) is on file for O=C1C[C@@H]2CCCN2C(=O)N1CCCCN1CCN(c2nsc3ccccc23)CC1 [Example 2, oxalate] ? 244

Could you tell me which AUC(0-t) is on file for O=C1C[C@@H]2C[C@H]3C[C@H]3N2C(=O)N1CCCCN1CCN(c2nsc3ccccc23)CC1 [Example 11, oxalate] ? 98

Could you tell me which AUC(0-t) is on file for O=C1C[C@@H]2CCCN2C(=O)N1CCCCN1CCN(c2cccc3sccc23)CC1 [Example 4, oxalate] ? 169

Could you tell me which AUC(0-t) is on file for O=C1C[C@H]2CCCN2C(=O)N1C[C@H]1CCCC[C@H]1CN1CCN(c2nsc3ccccc23)CC1 [Example 27, oxalate] ? 173
